tested on: Bacillus cereus; test: Antibacterial activity against clinically isolated Bacillus cereus CMCC63303 assessed as inhibition of bacterial growth measured after 16 to 24 hrs by broth microdilution method; assay type: functional; conditions: time 16-24 hrs, read-out: MIC100
test_readout: MIC (mg/L)
Express your answer in mg/L, writing the number without its unit.

// recorded MIC for `CCN(CC)CCCCCCCCCCCCOc1cc(=O)oc2ccccc12` : 4

// recorded MIC for `CCCCN(CCCC)CCCCCCCCCCCCOc1cc(=O)oc2ccccc12` : 8

// recorded MIC for `CCN(CC)CCCCCCCCCCCCOc1ccc2ccc(=O)oc2c1` : 4

====

For each record, write down the corresponding MIC.
test system: Enterococcus faecalis; test: Antibacterial activity against clinically isolated Enterococcus faecalis ATCC29212 assessed as inhibition of bacterial growth measured after 16 to 24 hrs by broth microdilution method; format: functional; conditions: time 16-24 hrs, read-out: MIC100

// recorded MIC for `CCCCN(CCCC)CCCCCCCCCCCCOc1cc(=O)oc2ccccc12` : 4 µg/mL

// recorded MIC for O=c1ccc2ccc(O)cc2o1 [UMBELLIFERONE] : > 256 µg/mL

// recorded MIC for O=c1cc(O)c2ccccc2o1 [4-HYDROXYCOUMARINS] : > 256 µg/mL

// recorded MIC for `CCN(CC)CCCCCCCCCCCCOc1ccc2ccc(=O)oc2c1` : 4 µg/mL
